B1: NCK2 (parent)
chain: YVERKNSLKKGSLVKNLKDTLGLG

Variants of: B1
methodNotes: protein stability index of a GFP-peptide fusion (GPS, HEK-293T) (PSI 1-6); higher = more stable;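 note: lentivirally expressed fusions sorted by FACS into six bins by GFP to DsRed ratio, PSI derived from sequencing read proportions per bin multiplied by bin number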
particulars: c terminus: a fixed tail appended
observedProperty: protein stability index
Please state the value as a number alone, without comment.

Observe how each entry below is paired with its result.
L23E; 2.86
L23Y; 1.94
K10N; 1.83
R4W; 1.57

### Prompt Check the records and state protein stability index for K9C
### Response 1.94

### Prompt Check the records and state protein stability index for L8Y
### Response 2.14

### Prompt Check the records and state protein stability index for G11H
### Response 2.02

### Prompt Check the records and state protein stability index for S7F
### Response 2.66

### Prompt Check the records and state protein stability index for S7G
### Response 1.99

### Prompt Check the records and state protein stability index for G24C
### Response 2.2

### Prompt Check the records and state protein stability index for G22V
### Response 1.97
